Molecular target: T1, Cynomolgus c-Kit (BLI analyte) (cynomolgus)
T1 construct: also called Cynomoguls c-Kit
Experiment: BLI (Octet), antibody on capture sensor
Classify: criterion met when Kd is strictly less than 0.3 nM; criterion not met when Kd is not.

hSR1-5 (antibody, human IgG1, kappa, V domains shown, also called humanized SR1-5; hSR1-H2 / hSR1-L2r) VH: QVQLVQSGAEVKKPGASVKVSCKASGYTFTSYNMHWVRQAPGQGLEWMGVIYSGNGDTSYAQKFQGRVTMTADTSTSTAYMELSSLRSEDTAVYYCARERDTRFGNWGQGTLVTVSS VL: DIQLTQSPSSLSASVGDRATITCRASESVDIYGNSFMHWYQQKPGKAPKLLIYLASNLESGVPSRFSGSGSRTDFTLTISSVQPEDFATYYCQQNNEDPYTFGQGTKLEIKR: criterion not met

Continue with the binder presented below.
Query: Check if Kd falls below 0.3 nM for hSR1-4 (antibody, human IgG1, kappa, V domains shown, also called humanized SR1-4; hSR1-H3b / hSR1-L2) VH: QVQLVQSGAEVKKPGASVKMSCKASGYTFTSYNMHWVRQAPGQGLEWIGVIYSGNGDTSYAQKFQGRATLTADKSTSTAYMELSSLRSEDTAVYYCARERDTRFGNWGQGTLVTVSS VL: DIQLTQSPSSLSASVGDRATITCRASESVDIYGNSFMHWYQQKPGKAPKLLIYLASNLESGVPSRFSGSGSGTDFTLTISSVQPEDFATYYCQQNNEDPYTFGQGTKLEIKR .
Result: criterion not met

Values compiled from patent US20260070975A1.
